Target: T1, recombinant human fibronectin fragment FN7B8 (human, UniProt P02751 1173-1448)
T1 construct: no separate number is printed for the protein, so the entry may be a nucleic acid
T1 sequence (P02751 other isoform, or with tags, fused parts or gaps limits assumed): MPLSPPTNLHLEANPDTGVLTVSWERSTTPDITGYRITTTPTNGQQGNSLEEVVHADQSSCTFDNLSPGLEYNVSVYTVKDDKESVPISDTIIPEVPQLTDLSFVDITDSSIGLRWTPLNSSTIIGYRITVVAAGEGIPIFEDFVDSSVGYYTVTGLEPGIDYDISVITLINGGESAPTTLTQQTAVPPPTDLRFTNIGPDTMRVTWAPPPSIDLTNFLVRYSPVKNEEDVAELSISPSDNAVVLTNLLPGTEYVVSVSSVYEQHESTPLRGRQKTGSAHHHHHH
Experiment: ELISA: FN7B8 coated, mutein titrated, detected via Strep-tag II
Assay Endpoint: pKd
When answering, recall that pKd equals minus log10 of the concentration in mol/L, and write that number alone.

Use these answered entries as a reference point.
Lcn2 mutein N9B (designed binder) QDSTSDLIPAPPLSKVPLQQNFQDNQFHGKWYVVGRAGNMRLREDKDPAKMVATIYELKEDKSYNVTKVMFQRKKCKYMINTFVPGSQPGEFTLGAIKSPPGPTSTLVRVVSTNYNQHAMVFFKHVFQNREYFHITLYGRTKELTSELKENFIRFSKSLGLPENHIVFPVPIDQCIDG    7.40
Lcn2 mutein N10D (designed binder, also called NIOD; NI OD) QDSTSDLIPAPPLSKVPLQQNFQDNQFHGKWYVVGAAGNTWLREDKDPYKMQATIYELKEDKSYNVTNVLFMSKKCRYMIHTFVPGSQPGEFTLGSIKSWPGLTSWLVRVVSTNYNQHAMVFFKRVYQNREFFGITLYGRTKELTSELKENFIRFSKSLGLPENHIVFPVPIDQCIDG    7.29
Lcn2 mutein N7E (designed binder) QDSTSDLIPAPPLSKVPLQQNFQDNQFHGKWYVVGEAGNSLLREDKDPRKMYATIYELKEDKSYNVTSVRFRSKKCHYLIRTFVPGSQPGEFTLGLIKSKPGHTSFLVRVVSTNYNQHAMVFFKTVAQNREYFFITLYGRTKELTSELKENFIRFSKSLGLPENHIVFPVPIDQCIDG    7.52

Exercise: Which measured pKd value corresponds to Lcn2 mutein N7A (designed binder) QDSTSDLIPAPPLSKVPLQQNFQDNQFHGKWYVVGKAGNHDLREDKDPRKMQATIYELKEDKSYNVTNVRFVHKKCNYRIWTFVPGSQPGEFTLGNIKSWPGLTSWLVRVVSTNYNQHAMVFFKRVYQNRELFEITLYGRTKELTNELKENFIRFSKSLGLPENHIVFPVPIDQCIDG ?
Key: 7.83
